experiment: Laboratory stability in halogen demand-free water (DFW), iodometric titration; format: physicochemical; settings: demand-free water, pH 9.5
measured-parameter: remaining at 672 h (%)
Number only, in %; omit the unit.

structure-smiles-string: CC1(C)C(=O)N(Cl)C(C)(C)N1Br
remaining at 672 h / %: 60.8

State the recorded remaining at 672 h for this entry: CC1(C)C(=O)N(Cl)C(C)(C)N1Cl 72.3
